Tested on: Streptococcus mutans
Test: Combination determination (FIC, MIC in combination)
Type: cell-based
Conditions: S. mutans; berberine (B-CG) combined with CHX, Tet or Dox; MIC of the named agent in the combination
Structures can show the parent of a compound that is named as a salt.
ASSAY_METRIC: MIC of the antimicrobial agents in combination

| MOLECULE | RESULT |
| --- | --- |
| CN(C)[C@@H]1C(O)=C(C(N)=O)C(=O)[C@@]2(O)C(O)=C3C(=O)c4c(O)cccc4[C@@](C)(O)[C@H]3C[C@@H]12 [Tet, tetracycline HCl] | 0.20 µg/mL |
| COc1ccc2cc3[n+](cc2c1OC)CCc1cc2c(cc1-3)OCO2 | 62.5 µg/mL |
| C[C@H]1c2cccc(O)c2C(=O)C2=C(O)[C@]3(O)C(=O)C(C(N)=O)=C(O)[C@@H](N(C)C)[C@@H]3[C@@H](O)[C@@H]21 [Dox, doxycycline HCl] | 0.20 µg/mL |

Read the entry [H]/N=C(\N/C(=N/[H])NCCCCCCNC(=N)NC(=N)Nc1ccc(Cl)cc1)Nc1ccc(Cl)cc1 [CHX, chlorhexidine gluconate] and write its reported MIC of the antimicrobial agents in combination. 0.04 µg/mL
